Each entry below carries its recorded kon.
- targetUnderTest: T1, recombinant IL-3Rα ectodomain (human, UniProt P26951 19-305)
- T1 construct: extracellular domain; also called recombinant IL-3Ra; biotinylated-IL-3Rα ectodomain
- T1 sequence (looked up): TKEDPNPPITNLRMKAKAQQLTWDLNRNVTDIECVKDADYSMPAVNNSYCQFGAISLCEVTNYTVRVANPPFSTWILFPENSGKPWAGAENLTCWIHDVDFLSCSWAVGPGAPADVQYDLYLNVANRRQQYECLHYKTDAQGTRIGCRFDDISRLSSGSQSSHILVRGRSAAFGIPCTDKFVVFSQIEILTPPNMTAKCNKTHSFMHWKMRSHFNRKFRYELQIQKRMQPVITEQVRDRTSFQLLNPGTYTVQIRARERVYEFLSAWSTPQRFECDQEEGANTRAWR
- testProtocol: SPR ProteOn, immobilised IL-3Rα ectodomain

{"binder": "51D09 (VHH) VHH: EVQLVESGGGLVQPGGSLRLSCAASGSIFSGNTMGWYRQAPGKQRELVAAISSGGSTDYADSVKGRFTISRDNSKNTVYLQMNSLRPEDTAVYYCNAAILLYRLYGYEEGDYWGLGTLVTVSS", "kon / M⁻¹ s⁻¹": 37800}
{"binder": "55C05 (VHH) VHH: EVQLVESGGGLVPAGDSLRLSCVASGRSLNTYTMGWFRQAPGKECEFVAAINWNGVYRDYADSAKGRFTASRDNAMNTVFLQMNSLKPEDTAVYFCATATQGWDRHTEPSDFGSWGLGTQVTVSS", "kon / M⁻¹ s⁻¹": 126000}
{"binder": "50F07 (VHH) VHH: EVQLVESGGGLVQPGGSLRLSCTGSGSTFSINAMGWYRQAPGKQRELVAAITSGGRTNYADSVKGRFTISRDNSKNTVYLQMNSLRPEDTAVYYCNARISAGTAFWLWSDYEYWGLGTLVTVSS", "kon / M⁻¹ s⁻¹": 102000}
{"binder": "55F03 (VHH) VHH: EVQLVESGGGLVQAGGPLRLSCAASGRTFSSYVMGWFRQAPGKEREFVAAIYWSNGKTQYTDSVKGRFTISGDNAKNTVYLQMNSLNPEDTAVYYCVADKDETGFRTLPIAYDYWGLGTQVTVSS", "kon / M⁻¹ s⁻¹": 42500}
